Tested on: ECL1002
ASSAY: Aztreonam potentiation (MPC@4), strain ECL1002
CONDITIONS USED: minimum BLI concentration inhibiting growth with aztreonam 4 μg/mL; tested up to 40 μg/mL
MEASUREMENT LABEL: AZT MPC4 ECL1002

> print(dat)
                                    compound  target.or.system            observed.value
 1  O=C([O-])c1c(CO)ccc2c1O[B-](O)(O)CC2.[Na+].[Na+]           ECL1002   X (X = MPC@4 ≤ 5 μg/mL)
 2  O=C([O-])c1c(OCC#CCO)ccc2c1O[B-](O)(O)CC2.[Na+].[Na+]           ECL1002   X (X = MPC@4 ≤ 5 μg/mL)
 3  O=C(O)c1c(-c2c[nH]nn2)ccc2c1O[B-](O)(O)CC2           ECL1002   X (X = MPC@4 ≤ 5 μg/mL)
 4         NC(=O)COc1ccc2c(c1C(=O)O)OB(O)CC2           ECL1002   X (X = MPC@4 ≤ 5 μg/mL)
 5  C[C@]1(Cn2ccnn2)[C@H](C(=O)O)N2C(=O)C[C@H]2S1(=O)=O [Tazobactam, reference compound]           ECL1002  Z (Z = MPC@4 > 20 μg/mL)
 6  NCCn1cc(-c2ccc3c(c2C(=O)O)O[B-](O)(O)CC3)nn1           ECL1002  Z (Z = MPC@4 > 20 μg/mL)
 7        O=C(O)c1c(CNc2nncs2)ccc2c1OB(O)CC2           ECL1002   X (X = MPC@4 ≤ 5 μg/mL)
 8  C[S+]([O-])c1ccc2c(c1C(=O)[O-])O[B-](O)(O)CC2.[Na+].[Na+] (stereo not shown)           ECL1002   X (X = MPC@4 ≤ 5 μg/mL)
 9       CS(=O)(=O)c1ccc2c(c1C(=O)O)OB(O)CC2           ECL1002   X (X = MPC@4 ≤ 5 μg/mL)
10  O=C([O-])c1c(OCCN2CCOCC2)ccc2c1O[B-](O)(O)CC2.[Na+].[Na+]           ECL1002   X (X = MPC@4 ≤ 5 μg/mL)
11  NCC#CCOc1ccc2c(c1C(=O)[O-])O[B-](O)(O)CC2.[Na+].[Na+]           ECL1002   X (X = MPC@4 ≤ 5 μg/mL)
12               O=C(O)c1c(F)ccc2c1OB(O)COC2           ECL1002   X (X = MPC@4 ≤ 5 μg/mL)
13  NCCn1cc(COc2ccc3c(c2C(=O)O)O[B-](O)(O)CC3)nn1           ECL1002   X (X = MPC@4 ≤ 5 μg/mL)
14  O=C([O-])c1c(-c2ccn[nH]2)ccc2c1O[B-](O)(O)CC2.[Na+].[Na+]           ECL1002   X (X = MPC@4 ≤ 5 μg/mL)
15  NCCc1cn(-c2ccc3c(c2C(=O)O)O[B-](O)(O)CC3)nn1           ECL1002  Z (Z = MPC@4 > 20 μg/mL)
16  O=C([O-])c1c(OCC#CCN2CCC2)ccc2c1O[B-](O)(O)CC2.[Na+].[Na+]           ECL1002   X (X = MPC@4 ≤ 5 μg/mL)
17  CSCC(=O)NC1CB(O)Oc2c(C(=O)O)cccc21 (stereo not shown)           ECL1002   X (X = MPC@4 ≤ 5 μg/mL)
18  COc1ccc2c(c1C(=O)[O-])O[B-](O)(O)CC2.[Na+].[Na+]           ECL1002   X (X = MPC@4 ≤ 5 μg/mL)
19  [2H]C1([2H])Cc2ccc(OC)c(C(=O)[O-])c2O[B-]1(O)O.[Na+].[Na+]           ECL1002   X (X = MPC@4 ≤ 5 μg/mL)
20                   O=C(O)c1cccc2c1OB(O)CC2           ECL1002  Z (Z = MPC@4 > 20 μg/mL)
21  O=C([O-])c1ccnc2c1O[B-](O)(O)CC2.[Na+].[Na+]           ECL1002  Z (Z = MPC@4 > 20 μg/mL)
22  COCC#CCOc1ccc2c(c1C(=O)[O-])O[B-](O)(O)CC2.[Na+].[Na+]           ECL1002   X (X = MPC@4 ≤ 5 μg/mL)
23   O=C(O)c1c(-n2ccnn2)ccc2c1O[B-](O)(O)CC2           ECL1002   X (X = MPC@4 ≤ 5 μg/mL)
24            COc1c(F)cc2c(c1C(=O)O)OB(O)CC2           ECL1002   X (X = MPC@4 ≤ 5 μg/mL)
25  CCOc1ccc2c(c1C(=O)[O-])O[B-](O)(O)CC2.[Na+].[Na+]           ECL1002   X (X = MPC@4 ≤ 5 μg/mL)
26  N#Cc1ccc2c(c1C(=O)[O-])O[B-](O)(O)CC2.[Na+].[Na+]           ECL1002  Z (Z = MPC@4 > 20 μg/mL)
27            N#CCOc1ccc2c(c1C(=O)O)OB(O)CC2           ECL1002   X (X = MPC@4 ≤ 5 μg/mL)
28  O=C([O-])c1c(OCC(F)F)ccc2c1O[B-](O)(O)CC2.[Na+].[Na+]           ECL1002   X (X = MPC@4 ≤ 5 μg/mL)
29  CON=Cc1ccc2c(c1C(=O)[O-])O[B-](O)(O)CC2.[Na+].[Na+]           ECL1002   X (X = MPC@4 ≤ 5 μg/mL)
30            COc1ccc2c(c1P(=O)(O)O)OB(O)CC2           ECL1002  Z (Z = MPC@4 > 20 μg/mL)
31             O=C(O)c1c(F)c(F)cc2c1OB(O)CC2           ECL1002   X (X = MPC@4 ≤ 5 μg/mL)
32            C#CCOc1ccc2c(c1C(=O)O)OB(O)CC2           ECL1002   X (X = MPC@4 ≤ 5 μg/mL)
33  C#Cc1ccc2c(c1C(=O)[O-])O[B-](O)(O)CC2.[Na+].[Na+]           ECL1002   X (X = MPC@4 ≤ 5 μg/mL)
34  O=C([O-])c1cncc2c1O[B-](O)(O)CC2.[Na+].[Na+]           ECL1002  Z (Z = MPC@4 > 20 μg/mL)

Value source: patent US10618918B2
